biological target: human α4β2 AChRs (Homo sapiens, UniProt P17787+P43681); construct: expressed in transfected cells; assay: Acute activation, FLEXStation membrane potential dye, α4β2 cell line; assay type: cell-based; details: α4β2; higher sensitivity component or monophasic curve
Sequence (P43681 29-627 limits assumed): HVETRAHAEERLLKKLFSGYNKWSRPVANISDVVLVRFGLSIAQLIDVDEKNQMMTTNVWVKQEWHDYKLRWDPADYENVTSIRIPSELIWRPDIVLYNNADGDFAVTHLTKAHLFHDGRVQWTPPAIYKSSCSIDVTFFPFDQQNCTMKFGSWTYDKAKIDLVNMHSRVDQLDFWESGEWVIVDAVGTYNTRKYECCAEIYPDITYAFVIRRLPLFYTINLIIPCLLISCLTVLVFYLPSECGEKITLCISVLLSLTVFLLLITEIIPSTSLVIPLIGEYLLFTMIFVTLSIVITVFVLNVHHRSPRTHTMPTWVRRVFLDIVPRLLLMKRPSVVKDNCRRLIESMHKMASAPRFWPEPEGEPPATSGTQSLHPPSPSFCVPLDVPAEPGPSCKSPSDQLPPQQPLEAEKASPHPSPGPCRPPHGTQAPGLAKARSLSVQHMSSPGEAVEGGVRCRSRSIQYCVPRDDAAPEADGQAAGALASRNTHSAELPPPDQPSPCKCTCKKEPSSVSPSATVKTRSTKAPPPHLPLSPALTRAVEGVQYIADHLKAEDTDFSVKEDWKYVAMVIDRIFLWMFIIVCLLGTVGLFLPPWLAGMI
Sequence (P17787 26-502): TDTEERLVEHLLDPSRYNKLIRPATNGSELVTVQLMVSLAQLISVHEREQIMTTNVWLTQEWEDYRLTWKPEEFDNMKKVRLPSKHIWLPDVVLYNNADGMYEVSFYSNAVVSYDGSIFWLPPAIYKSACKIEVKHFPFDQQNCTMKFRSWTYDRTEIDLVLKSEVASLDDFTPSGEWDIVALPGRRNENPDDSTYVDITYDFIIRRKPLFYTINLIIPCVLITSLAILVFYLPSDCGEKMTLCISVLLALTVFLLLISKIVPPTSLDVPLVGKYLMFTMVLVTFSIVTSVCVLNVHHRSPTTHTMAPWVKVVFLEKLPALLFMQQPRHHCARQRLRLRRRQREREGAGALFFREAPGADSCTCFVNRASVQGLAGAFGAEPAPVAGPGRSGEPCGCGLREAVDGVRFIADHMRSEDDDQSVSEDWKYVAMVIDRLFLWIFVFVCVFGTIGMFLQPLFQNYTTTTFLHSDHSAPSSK
Binary classification by Hill (activation), with 1 as an inclusive lower bound for MET; all other cases are NOT MET.

O=c1cccc2n1C[C@@H]1CNC[C@H]2C1: NOT MET

Is the recorded value of Hill (activation) equal to or greater than 1 for this compound? OCCCCC#Cc1cncc(OC[C@@H]2CCN2)c1
MET

Is the recorded value of Hill (activation) equal to or greater than 1 for this compound? CC(=O)OCC[N+](C)(C)C
MET

Is the recorded value of Hill (activation) equal to or greater than 1 for this compound? c1cnc2cc3c(cc2n1)[C@@H]1CNC[C@H]3C1
MET

Is the recorded value of Hill (activation) equal to or greater than 1 for this compound? CN1CCC[C@H]1c1cccnc1
MET

----------
target: human α4β2 AChRs (Homo sapiens, UniProt P17787+P43681); construct: expressed in transfected cells; test: Acute activation, FLEXStation membrane potential dye, α4β2 cell line; assay type: cell-based; details: α4β2, mixture of stoichiometries
measured.quantity: Agonist type (full or partial)

OCCCCC#Cc1cncc(OC[C@@H]2CCN2)c1: partial agonist
CC(=O)OCC[N+](C)(C)C: full agonists
O=c1cccc2n1C[C@@H]1CNC[C@H]2C1: partial agonist
CN1CCC[C@H]1c1cccnc1: full agonists

----------
Hi there, I'd appreciate the recorded Hill (desensitization) for every entry that follows.
target: human α4β2 AChRs (Homo sapiens, UniProt P17787+P43681); construct: expressed in transfected cells; test: Chronic desensitization (16 h agonist, then ACh response) and calculated smoldering activation, α4β2 cell line; type: cell-based; settings: α4β2: 3 µM ACh; first component
Answers are plain numbers.

Examples from the recorded data:
c1cnc2cc3c(cc2n1)[C@@H]1CNC[C@H]3C1 [Varenicline, varenicline]: −0.6
CN1CCC[C@H]1c1cccnc1 [Nicotine, nicotine]: −1.0
OCCCCC#Cc1cncc(OC[C@@H]2CCN2)c1 [Sazetidine-A]: −0.9

Next item in the queue.
Find Hill (desensitization) (human α4β2 AChRs (Homo sapiens, UniProt P17787+P43681)) for the entry O=c1cccc2n1C[C@@H]1CNC[C@H]2C1 [Cytisine, cytisine]
−1.1

----------
molecular target: α3β4 AChRs (Homo sapiens, UniProt P30926+P32297); construct: expressed in transfected cells; test: Chronic desensitization (16 h agonist, then ACh response) and calculated smoldering activation, α3β4 cell line; assay type: cell-based; conditions: α3β4: 1.0 mM ACh
Sequence (P32297 32-505): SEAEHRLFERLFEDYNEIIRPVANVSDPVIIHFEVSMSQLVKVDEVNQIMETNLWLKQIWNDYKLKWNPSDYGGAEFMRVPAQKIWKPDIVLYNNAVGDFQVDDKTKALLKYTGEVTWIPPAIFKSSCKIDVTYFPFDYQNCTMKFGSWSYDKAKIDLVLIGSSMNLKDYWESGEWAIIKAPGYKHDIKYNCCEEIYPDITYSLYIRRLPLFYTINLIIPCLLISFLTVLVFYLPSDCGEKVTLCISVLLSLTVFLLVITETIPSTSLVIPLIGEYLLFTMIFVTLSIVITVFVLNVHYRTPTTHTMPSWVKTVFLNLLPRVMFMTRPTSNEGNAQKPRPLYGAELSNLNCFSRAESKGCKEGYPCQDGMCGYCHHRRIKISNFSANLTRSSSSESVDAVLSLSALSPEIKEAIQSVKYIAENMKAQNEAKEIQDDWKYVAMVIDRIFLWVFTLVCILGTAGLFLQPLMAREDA
Sequence (P30926 22-498): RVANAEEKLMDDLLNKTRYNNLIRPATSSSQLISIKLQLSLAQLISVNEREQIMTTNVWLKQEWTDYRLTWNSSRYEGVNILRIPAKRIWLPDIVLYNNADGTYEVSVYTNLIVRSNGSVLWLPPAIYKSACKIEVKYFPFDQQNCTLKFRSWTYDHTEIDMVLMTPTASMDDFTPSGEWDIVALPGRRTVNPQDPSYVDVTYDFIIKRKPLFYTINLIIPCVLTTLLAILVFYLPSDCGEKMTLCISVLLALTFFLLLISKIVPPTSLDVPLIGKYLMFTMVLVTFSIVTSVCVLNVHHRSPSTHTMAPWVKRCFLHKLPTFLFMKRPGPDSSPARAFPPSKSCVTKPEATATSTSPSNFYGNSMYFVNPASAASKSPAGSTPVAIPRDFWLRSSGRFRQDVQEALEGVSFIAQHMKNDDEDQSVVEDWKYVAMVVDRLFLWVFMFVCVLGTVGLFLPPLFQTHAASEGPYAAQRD
Hi there, I'd appreciate the recorded Hill (desensitization) for every entry that follows.

Examples from the recorded data:
OCCCCC#Cc1cncc(OC[C@@H]2CCN2)c1 [Sazetidine-A]: −0.5
c1cnc2cc3c(cc2n1)[C@@H]1CNC[C@H]3C1 [Varenicline, varenicline]: −1.1
O=c1cccc2n1C[C@@H]1CNC[C@H]2C1 [Cytisine, cytisine]: −0.6

Sample CN1CCC[C@H]1c1cccnc1 [Nicotine, nicotine] — what was its Hill (desensitization)?
−0.9

----------
Target: α7 AChRs (Homo sapiens)
Sequence (P36544 23-502): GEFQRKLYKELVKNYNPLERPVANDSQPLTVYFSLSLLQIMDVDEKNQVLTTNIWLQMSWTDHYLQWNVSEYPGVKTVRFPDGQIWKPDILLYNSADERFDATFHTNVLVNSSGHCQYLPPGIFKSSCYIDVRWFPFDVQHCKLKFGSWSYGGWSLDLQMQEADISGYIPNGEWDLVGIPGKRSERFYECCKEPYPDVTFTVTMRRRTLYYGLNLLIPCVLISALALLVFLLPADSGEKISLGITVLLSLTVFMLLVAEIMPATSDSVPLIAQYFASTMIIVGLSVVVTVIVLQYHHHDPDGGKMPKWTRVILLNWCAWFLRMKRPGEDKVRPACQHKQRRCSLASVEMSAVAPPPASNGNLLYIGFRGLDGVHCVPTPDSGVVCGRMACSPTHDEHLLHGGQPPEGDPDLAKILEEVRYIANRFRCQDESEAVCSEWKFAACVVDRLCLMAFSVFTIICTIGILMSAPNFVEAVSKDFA
Test: Acute activation, FLEXStation membrane potential dye, α7/RIC-3 cell line
Type: cell-based
Design: expressed in transfected cells; grown in VPA and PBA
Method: The parental cell line used for transfections was tsA201, derived from the human embryonic kidney cell line (HEK) 293 [33]. […] The cell line permanently expressing α3β4 AChRs has been described, [34]. […] Responses to nicotinic agonists were determined using a FLEXStation microplate fluorometer (Molecular Devices, Sunnyvale, CA) as described. […] Data were graphed using GraphPad Prism software. […] The EC50 and IC50 were calculated from the curves. […]
measured.quantity: EC50 (µM)
Numbers only, in µM.

Find EC50 (α7 AChRs (Homo sapiens)) for the entry O=c1cccc2n1C[C@@H]1CNC[C@H]2C1
2
